- TARGET_OF_ASSAY: EPHB3
- PROTOCOL_SUMMARY: pooled miR-30 sensor sort-seq; sequence = guide strand; also: reference of the scale not given here
- CONDITIONS_USED: shRNA
# if value of sensor-assay potency score (higher = more potent) reaches -0.6, tag TRUE; if it stays below, tag FALSE

MONOMER_SEQUENCE: TGAGGTTTCATTCACATTGGAG
TARGET_OF_ASSAY: EPHB3
DISCRETE_LABEL: FALSE
//
MONOMER_SEQUENCE: TTACACACCTGGTATGTGCGGA
TARGET_OF_ASSAY: EPHB3
DISCRETE_LABEL: TRUE
//
MONOMER_SEQUENCE: TTGCAGTAGAGCTTGAGTGGCA
TARGET_OF_ASSAY: EPHB3
DISCRETE_LABEL: TRUE
//
MONOMER_SEQUENCE: TAGCAGAAGTGAACTTCCGATA
TARGET_OF_ASSAY: EPHB3
DISCRETE_LABEL: FALSE
//
MONOMER_SEQUENCE: TACTGCTGCAGCTTCTCCGTGT
TARGET_OF_ASSAY: EPHB3
DISCRETE_LABEL: TRUE
//
MONOMER_SEQUENCE: TACTTCATCTCGTAGTCCAGGA
TARGET_OF_ASSAY: EPHB3
DISCRETE_LABEL: TRUE
//
MONOMER_SEQUENCE: TCACATTGGAGATCACACCTCG
TARGET_OF_ASSAY: EPHB3
DISCRETE_LABEL: TRUE
//
MONOMER_SEQUENCE: TTGCTGTTGACAAGGATGTTGC
TARGET_OF_ASSAY: EPHB3
DISCRETE_LABEL: FALSE
//
MONOMER_SEQUENCE: TCTCCGTGTACTCCGAATCAGA
TARGET_OF_ASSAY: EPHB3
DISCRETE_LABEL: FALSE
//
MONOMER_SEQUENCE: TTGAGCTCCACGTAGACCCGCT
TARGET_OF_ASSAY: EPHB3
DISCRETE_LABEL: TRUE
//
MONOMER_SEQUENCE: AACTGGTGTAGGTAGGATCGGA
TARGET_OF_ASSAY: EPHB3
DISCRETE_LABEL: TRUE
//
MONOMER_SEQUENCE: TAGTCCAGGATGACTCCGTTGG
TARGET_OF_ASSAY: EPHB3
DISCRETE_LABEL: TRUE
//
MONOMER_SEQUENCE: TTGCAGATGACATTGTACAGGA
TARGET_OF_ASSAY: EPHB3
DISCRETE_LABEL: TRUE
//
MONOMER_SEQUENCE: TCGTAGTCCAGGATGACTCCGT
TARGET_OF_ASSAY: EPHB3
DISCRETE_LABEL: TRUE
//
MONOMER_SEQUENCE: TCACCAACTGTCGTGAAGGTTG
TARGET_OF_ASSAY: EPHB3
DISCRETE_LABEL: FALSE

---

- TARGET_OF_ASSAY: NEUROD6
- PROTOCOL_SUMMARY: pooled miR-30 sensor sort-seq; sequence = guide strand
- CONDITIONS_USED: shRNA
Measured sensor-assay potency score (higher = more potent), listed per entry.
METRIC: sensor-assay potency score (higher = more potent)

MONOMER_SEQUENCE: TTTGTTGTCTTTTTTTTCCTAA
MEASURED_VALUE: -0.154
//
MONOMER_SEQUENCE: TTTGTCTTAATTAGACAGGGGA
MEASURED_VALUE: -0.0326
//
MONOMER_SEQUENCE: TCAGAAACTAGTAAACACCTTA
MEASURED_VALUE: 0.248
//
MONOMER_SEQUENCE: TTAAGTTGTCCAGAGCGTCGTT
MEASURED_VALUE: -0.144
//
MONOMER_SEQUENCE: TTTTCATCTTCCTCTTCCCTGT
MEASURED_VALUE: -0.025
//
MONOMER_SEQUENCE: TAAGTTGTCCAGAGCGTCGTTG
MEASURED_VALUE: -0.475
//
MONOMER_SEQUENCE: AATAGTTGAAACACACTTCAGA
MEASURED_VALUE: -0.228
//
MONOMER_SEQUENCE: TTCTCTAGAAAACTTTCTGCAC
MEASURED_VALUE: -0.894
//
MONOMER_SEQUENCE: TGTCTCCTGAACTTGACCCTTT
MEASURED_VALUE: -0.00785

---

- TARGET_OF_ASSAY: YY1AP1
- PROTOCOL_SUMMARY: pooled miR-30 sensor sort-seq; sequence = guide strand
- CONDITIONS_USED: shRNA
METRIC: sensor-assay potency score (higher = more potent)

MONOMER_SEQUENCE: TTCAAACAGATCTTCCATCAGC
MEASURED_VALUE: -0.176
--
MONOMER_SEQUENCE: TTTTTCTAGGCCTTGATCTGAG
MEASURED_VALUE: -0.00665
--
MONOMER_SEQUENCE: TAAAGTTAGCTTGAGGCTCAGC
MEASURED_VALUE: -0.69
--
MONOMER_SEQUENCE: TTCCATCTTGACAACTTCCTCT
MEASURED_VALUE: 0.35
--
MONOMER_SEQUENCE: TGTCAAGAGCTGAACATGCTGC
MEASURED_VALUE: -0.313
--
MONOMER_SEQUENCE: TTTGCTTCCTTTTCGTGTCGGA
MEASURED_VALUE: 0.308
--
MONOMER_SEQUENCE: TTTAACCTTCTCTACCTCCTTC
MEASURED_VALUE: 0.0131

---

Recorded sensor-assay potency score (higher = more potent) for the following sequences
- TARGET_OF_ASSAY: FZR1
- PROTOCOL_SUMMARY: pooled miR-30 sensor sort-seq; sequence = guide strand
- CONDITIONS_USED: shRNA
METRIC: sensor-assay potency score (higher = more potent)

MONOMER_SEQUENCE: AACATGGACAGCTTCTTCCCTG
MEASURED_VALUE: -0.261
--
MONOMER_SEQUENCE: TACACTGCAGTGGTTGTCCTGT
MEASURED_VALUE: -0.434
--
MONOMER_SEQUENCE: TTGCACACTTGGGAGCCCGTGT
MEASURED_VALUE: -0.748
--
MONOMER_SEQUENCE: TGAGACTCCAGGATCCTCCAGG
MEASURED_VALUE: -0.492
--
MONOMER_SEQUENCE: TTCTCATTCTCGTTAATCCTGT
MEASURED_VALUE: -0.581
--
MONOMER_SEQUENCE: TGAGAGGTCACAGAGCCGCGTC
MEASURED_VALUE: -0.649
--
MONOMER_SEQUENCE: TTCTGTGAGTAGCCGTGCGTGC
MEASURED_VALUE: -1.08
--
MONOMER_SEQUENCE: TCTGTGGACCACTTGAGCCCGC
MEASURED_VALUE: -0.976

---

- TARGET_OF_ASSAY: VIPR2
- PROTOCOL_SUMMARY: pooled miR-30 sensor sort-seq; sequence = guide strand
- CONDITIONS_USED: shRNA
Is sensor-assay potency score (higher = more potent) at least -0.5? Then 1. If not, -1.

MONOMER_SEQUENCE: TCTGGGAACGTCTCTGACCATC
DISCRETE_LABEL: -1
--
MONOMER_SEQUENCE: TTCACCAGAATATAAAACGTGA
DISCRETE_LABEL: 1
--
MONOMER_SEQUENCE: TTTGCTGTAAAAATTGCTGAAG
DISCRETE_LABEL: -1
--
MONOMER_SEQUENCE: TAAAACGTGATCTTGCTCTCAT
DISCRETE_LABEL: 1
--
MONOMER_SEQUENCE: TTTCGCTTCAGCTCGCACTGCA
DISCRETE_LABEL: 1

---

- TARGET_OF_ASSAY: CTLA4
- PROTOCOL_SUMMARY: pooled miR-30 sensor sort-seq; sequence = guide strand
- CONDITIONS_USED: shRNA
Recorded sensor-assay potency score (higher = more potent), one value per entry.
METRIC: sensor-assay potency score (higher = more potent)

MONOMER_SEQUENCE: TTGCAGATGTAGAGTCCCGTGT
TARGET_OF_ASSAY: CTLA4
MEASURED_VALUE: -0.673

MONOMER_SEQUENCE: ATCAATTACATAAATCTGGGTT
TARGET_OF_ASSAY: CTLA4
MEASURED_VALUE: -0.149

MONOMER_SEQUENCE: TTGGATAGTGAGGTTCACTTGA
TARGET_OF_ASSAY: CTLA4
MEASURED_VALUE: 0.333

MONOMER_SEQUENCE: TTTAGCAATTACATAAATCTGG
TARGET_OF_ASSAY: CTLA4
MEASURED_VALUE: 0.216

MONOMER_SEQUENCE: TTACATAAATCTGGGTTCCGTT
TARGET_OF_ASSAY: CTLA4
MEASURED_VALUE: -0.355

MONOMER_SEQUENCE: TTTGCTCAAAGAAACAGCTGTG
TARGET_OF_ASSAY: CTLA4
MEASURED_VALUE: 0.483

MONOMER_SEQUENCE: TACATGAGCTCCACCTTGCAGA
TARGET_OF_ASSAY: CTLA4
MEASURED_VALUE: -0.733

MONOMER_SEQUENCE: TTTTCTTTAGCATTTTGCTCAA
TARGET_OF_ASSAY: CTLA4
MEASURED_VALUE: -0.539

MONOMER_SEQUENCE: TGGATCAATTACATAAATCTGG
TARGET_OF_ASSAY: CTLA4
MEASURED_VALUE: -0.489

MONOMER_SEQUENCE: TAGCAATTACATAAATCTGGGT
TARGET_OF_ASSAY: CTLA4
MEASURED_VALUE: -0.226

MONOMER_SEQUENCE: TACTCACACACAAAGCTGGCGA
TARGET_OF_ASSAY: CTLA4
MEASURED_VALUE: 0.197

MONOMER_SEQUENCE: TCAATTACATAAATCTGGGTTC
TARGET_OF_ASSAY: CTLA4
MEASURED_VALUE: -0.428

MONOMER_SEQUENCE: TTAGCAATTACATAAATCTGGG
TARGET_OF_ASSAY: CTLA4
MEASURED_VALUE: -0.222

MONOMER_SEQUENCE: TTCACTTGATTTCCACTGGAGG
TARGET_OF_ASSAY: CTLA4
MEASURED_VALUE: -0.709

MONOMER_SEQUENCE: TTGCTCAAAGAAACAGCTGTGA
TARGET_OF_ASSAY: CTLA4
MEASURED_VALUE: -0.0499

MONOMER_SEQUENCE: TTGCTTTTCACATTCTGGCTCT
TARGET_OF_ASSAY: CTLA4
MEASURED_VALUE: 0.296
